TARGET SYSTEM: KRAS (Homo sapiens)
Construct: His6-tagged human KRas Isoform 4B (residues 1-169); His6; made in house; host or cells: E. coli BL21(DE3), PQE80 vector
Sequence (P01116 1-169 isoform P01116-2): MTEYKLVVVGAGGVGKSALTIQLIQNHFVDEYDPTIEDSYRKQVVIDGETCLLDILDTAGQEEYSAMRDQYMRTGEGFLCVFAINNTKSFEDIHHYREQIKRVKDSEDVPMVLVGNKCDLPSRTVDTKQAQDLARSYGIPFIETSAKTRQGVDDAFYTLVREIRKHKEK
EXPERIMENT: B-RAP surface immunofluorescent assay, PCC ligand KRas EC50
Format: binding
MEASUREMENT CONDITIONS: 10 μM KRas well of plate #1, pixel by pixel, middle part of centroid
RESULT TYPE: avg F635, Middle Part Centroid

Enquiry: Provide one value: measured avg F635, Middle Part Centroid of CC(C)[C@@H]1NC(=O)[C@@H](N)Cc2cn(nn2)CCCC[C@@H](C(=O)NCCOCCOCCOCCOCCOCCC(=O)NCCNC(=O)CCCC[C@@H]2SC[C@@H]3NC(=O)NC32)NC(=O)[C@H](Cc2ccc(O)cc2)NC(=O)[C@@H]2CCCN2C(=O)[C@H](C(C)C)NC(=O)[C@H](CCC(N)=O)NC1=O (single isomer, unassigned) [Ligand L7b, VQVPY]
Return: 16944

Enquiry: Provide one value: measured avg F635, Middle Part Centroid of CC(C)[C@@H]1NC(=O)[C@@H](N)Cc2cn(nn2)CCCC[C@@H](C(=O)NCCOCCOCCOCCOCCOCCC(=O)NCCNC(=O)CCCC[C@@H]2SC[C@@H]3NC(=O)NC32)NC(=O)[C@H](Cc2ccc(O)cc2)NC(=O)[C@@H]2CCCN2C(=O)[C@H](C(C)C)NC(=O)[C@H](CCC(N)=O)NC1=O (stereo partly drawn) [Ligand L7, VQVPY]
Return: 54620

Enquiry: Provide one value: measured avg F635, Middle Part Centroid of CC(C)[C@@H]1NC(=O)[C@H](CCC(=O)O)NC(=O)[C@H](C(C)C)NC(=O)[C@@H](N)Cc2cn(nn2)CCCC[C@@H](C(=O)NCCOCCOCCOCCOCCOCCC(=O)NCCNC(=O)CCCC[C@@H]2SC[C@@H]3NC(=O)N[C@@H]32)NC(=O)[C@@H]2CCCN2C(=O)[C@H](Cc2ccc(O)cc2)NC1=O (single isomer, unassigned) [Ligand L5a, VEVYP]
Return: 8920
